Test system: Serratia marcescens 40
Assay: IO staining of colonies of beta-D-galactosidase positive/negative bacteria (Table IVb)
Format: cell-based
Settings: Serratia marcescens strain 40, b-gal +; 24 h on Nutrient Agar, 150 mg/l indicator, 100 mg/l IPTG
readout-kind: F: Fluorescence of colonies

Would you please look over these solved cases?
>>> result("CC(=O)c1ccccc1-n1cc(O[C@@H]2O[C@H](CO)[C@H](O)[C@H](O)[C@H]2O)c2ccc(Cl)cc21 [Indicator I16a]")
"+"
>>> result("Cn1cccc1C(=O)c1ccccc1-n1cc(O[C@@H]2O[C@H](CO)[C@H](O)[C@H](O)[C@H]2O)c2ccc(Cl)cc21 [Indicator I31a]")
"−"
>>> result("O=C(c1ccccc1)c1ccccc1-n1cc(O[C@@H]2O[C@H](CO)[C@H](O)[C@H](O)[C@H]2O)c2c(Cl)c(Br)ccc21 [Indicator I22a]")
"+/−"
>>> result("COc1ccc(C(=O)c2ccccc2-n2cc(O[C@@H]3O[C@H](CO)[C@H](O)[C@H](O)[C@H]3O)c3ccccc32)c(OC)c1 [Indicator I25a]")
"+/−"
>>> result("COc1ccc(C(=O)c2ccccc2-n2cc(O[C@@H]3O[C@H](CO)[C@H](O)[C@H](O)[C@H]3O)c3c(Cl)c(Br)ccc32)c(OC)c1 [Indicator I28a]")
"−"
>>> result("O=C(c1ccccc1)c1ccccc1-n1cc(O[C@@H]2O[C@H](CO)[C@H](O)[C@H](O)[C@H]2O)c2ccc(Cl)cc21 [Indicator I21a]")
"+"

For the next question, use this compound.
-- ask F: Fluorescence of colonies for COc1ccc(C(=O)c2ccccc2-n2cc(O[C@@H]3O[C@H](CO)[C@H](O)[C@H](O)[C@H]3O)c3ccc(Cl)cc32)c(OC)c1 [Indicator I27a] ?
-- reply +

* * *

System: Staphylococcus saprophyticus 273
Assay: IO staining of colonies of beta-D-galactosidase positive/negative bacteria (Table IVb)
Assay type: cell-based
Settings: Staphylococcus saprophyticus strain 273, b-gal +; 24 h on Nutrient Agar, 150 mg/l indicator, 100 mg/l IPTG
readout-kind: C: Color of colonies

// below: answered compounds
>>> result("COc1ccc(C(=O)c2ccccc2-n2cc(O[C@@H]3O[C@H](CO)[C@H](O)[C@H](O)[C@H]3O)c3ccccc32)c(OC)c1 [Indicator I25a]")
"+/−"
>>> result("CC(=O)c1ccccc1-n1cc(O[C@@H]2O[C@H](CO)[C@H](O)[C@H](O)[C@H]2O)c2ccc(Cl)cc21 [Indicator I16a]")
"+"
>>> result("COc1ccc(C(=O)c2ccccc2-n2cc(O[C@@H]3O[C@H](CO)[C@H](O)[C@H](O)[C@H]3O)c3ccc(Cl)cc32)c(OC)c1 [Indicator I27a]")
"+/−"
>>> result("COc1ccc(C(=O)c2ccccc2-n2cc(O[C@@H]3O[C@H](CO)[C@H](O)[C@H](O)[C@H]3O)c3c(Cl)c(Br)ccc32)c(OC)c1 [Indicator I28a]")
"+/−"
>>> result("O=C(c1ccccc1)c1ccccc1-n1cc(O[C@@H]2O[C@H](CO)[C@H](O)[C@H](O)[C@H]2O)c2c(Cl)c(Br)ccc21 [Indicator I22a]")
"−"

-- ask For the compound O=C(c1ccccc1)c1ccccc1-n1cc(O[C@@H]2O[C@H](CO)[C@H](O)[C@H](O)[C@H]2O)c2ccc(Cl)cc21 [Indicator I21a] , what C: Color of colonies is on record?
-- reply +

-- ask So what does the record say about C: Color of colonies for Cn1cccc1C(=O)c1ccccc1-n1cc(O[C@@H]2O[C@H](CO)[C@H](O)[C@H](O)[C@H]2O)c2ccc(Cl)cc21 [Indicator I31a] ?
-- reply +

* * *

Test system: Citrobacter freundii 181
Assay: IO staining of colonies of beta-D-galactosidase positive/negative bacteria (Table IVb)
Assay type: cell-based
Conditions: Citrobacter freundii strain 181, b-gal +; 24 h on Nutrient Agar, 150 mg/l indicator, 100 mg/l IPTG
readout-kind: F: Fluorescence of colonies

>>> result("COc1ccc(C(=O)c2ccccc2-n2cc(O[C@@H]3O[C@H](CO)[C@H](O)[C@H](O)[C@H]3O)c3ccccc32)c(OC)c1 [Indicator I25a]")
"+"
>>> result("Cn1cccc1C(=O)c1ccccc1-n1cc(O[C@@H]2O[C@H](CO)[C@H](O)[C@H](O)[C@H]2O)c2ccc(Cl)cc21 [Indicator I31a]")
"+/−"
>>> result("CC(=O)c1ccccc1-n1cc(O[C@@H]2O[C@H](CO)[C@H](O)[C@H](O)[C@H]2O)c2ccc(Cl)cc21 [Indicator I16a]")
"+"
>>> result("COc1ccc(C(=O)c2ccccc2-n2cc(O[C@@H]3O[C@H](CO)[C@H](O)[C@H](O)[C@H]3O)c3ccc(Cl)cc32)c(OC)c1 [Indicator I27a]")
"+"

* * *

Tested on: Aeromonas hydrophila 292
Assay: IO staining of colonies of beta-D-galactosidase positive/negative bacteria (Table IVb)
Format: cell-based
Settings: Aeromonas hydrophila strain 292, b-gal +; 24 h on Nutrient Agar, 150 mg/l indicator, 100 mg/l IPTG
readout-kind: C: Color of colonies

>>> result("CC(=O)c1ccccc1-n1cc(O[C@@H]2O[C@H](CO)[C@H](O)[C@H](O)[C@H]2O)c2ccc(Cl)cc21 [Indicator I16a]")
"+"
>>> result("O=C(c1ccccc1)c1ccccc1-n1cc(O[C@@H]2O[C@H](CO)[C@H](O)[C@H](O)[C@H]2O)c2c(Cl)c(Br)ccc21 [Indicator I22a]")
"+/−"
>>> result("O=C(c1ccccc1)c1ccccc1-n1cc(O[C@@H]2O[C@H](CO)[C@H](O)[C@H](O)[C@H]2O)c2ccc(Cl)cc21 [Indicator I21a]")
"+"
>>> result("COc1ccc(C(=O)c2ccccc2-n2cc(O[C@@H]3O[C@H](CO)[C@H](O)[C@H](O)[C@H]3O)c3ccccc32)c(OC)c1 [Indicator I25a]")
"+"

* * *

System: Enterobacter aerogenes 242
Assay: IO staining of colonies of beta-D-galactosidase positive/negative bacteria (Table IVb)
Assay type: cell-based
Conditions: Enterobacter aerogenes strain 242, b-gal +; 24 h on Nutrient Agar, 150 mg/l indicator, 100 mg/l IPTG
readout-kind: F: Fluorescence of colonies

>>> result("O=C(c1ccccc1)c1ccccc1-n1cc(O[C@@H]2O[C@H](CO)[C@H](O)[C@H](O)[C@H]2O)c2c(Cl)c(Br)ccc21 [Indicator I22a]")
"+/−"
>>> result("CC(=O)c1ccccc1-n1cc(O[C@@H]2O[C@H](CO)[C@H](O)[C@H](O)[C@H]2O)c2ccc(Cl)cc21 [Indicator I16a]")
"+"
>>> result("COc1ccc(C(=O)c2ccccc2-n2cc(O[C@@H]3O[C@H](CO)[C@H](O)[C@H](O)[C@H]3O)c3ccccc32)c(OC)c1 [Indicator I25a]")
"+"

* * *

Tested on: Staphylococcus saprophyticus 273
Experiment: IO staining of colonies of beta-D-galactosidase positive/negative bacteria (Table IVb)
Format: cell-based
Settings: Staphylococcus saprophyticus strain 273, b-gal +; 24 h on Nutrient Agar, 150 mg/l indicator, 100 mg/l IPTG
readout-kind: F: Fluorescence of colonies

Reference set, count: 6
>>> result("COc1ccc(C(=O)c2ccccc2-n2cc(O[C@@H]3O[C@H](CO)[C@H](O)[C@H](O)[C@H]3O)c3c(Cl)c(Br)ccc32)c(OC)c1 [Indicator I28a]")
"−"
>>> result("CC(=O)c1ccccc1-n1cc(O[C@@H]2O[C@H](CO)[C@H](O)[C@H](O)[C@H]2O)c2ccc(Cl)cc21 [Indicator I16a]")
"+"
>>> result("O=C(c1ccccc1)c1ccccc1-n1cc(O[C@@H]2O[C@H](CO)[C@H](O)[C@H](O)[C@H]2O)c2c(Cl)c(Br)ccc21 [Indicator I22a]")
"−"
>>> result("O=C(c1ccccc1)c1ccccc1-n1cc(O[C@@H]2O[C@H](CO)[C@H](O)[C@H](O)[C@H]2O)c2ccc(Cl)cc21 [Indicator I21a]")
"+"
>>> result("COc1ccc(C(=O)c2ccccc2-n2cc(O[C@@H]3O[C@H](CO)[C@H](O)[C@H](O)[C@H]3O)c3ccc(Cl)cc32)c(OC)c1 [Indicator I27a]")
"+/−"
>>> result("COc1ccc(C(=O)c2ccccc2-n2cc(O[C@@H]3O[C@H](CO)[C@H](O)[C@H](O)[C@H]3O)c3ccccc32)c(OC)c1 [Indicator I25a]")
"+/−"

-- ask Given the entry Cn1cccc1C(=O)c1ccccc1-n1cc(O[C@@H]2O[C@H](CO)[C@H](O)[C@H](O)[C@H]2O)c2ccc(Cl)cc21 [Indicator I31a] , report its measured F: Fluorescence of colonies.
-- reply −

* * *

System: Escherichia coli 61
Test: IO staining of colonies of beta-D-galactosidase positive/negative bacteria (Table IVb); note: key: −: absent; +/−: weak; +: strong; ++: very strong
Assay type: cell-based
Settings: Escherichia coli strain 61, b-gal +; 24 h on Nutrient Agar, 150 mg/l indicator, 100 mg/l IPTG
readout-kind: C: Color of colonies

>>> result("COc1ccc(C(=O)c2ccccc2-n2cc(O[C@@H]3O[C@H](CO)[C@H](O)[C@H](O)[C@H]3O)c3ccccc32)c(OC)c1 [Indicator I25a]")
"++"
>>> result("Cn1cccc1C(=O)c1ccccc1-n1cc(O[C@@H]2O[C@H](CO)[C@H](O)[C@H](O)[C@H]2O)c2ccc(Cl)cc21 [Indicator I31a]")
"+"
>>> result("O=C(c1ccccc1)c1ccccc1-n1cc(O[C@@H]2O[C@H](CO)[C@H](O)[C@H](O)[C@H]2O)c2ccc(Cl)cc21 [Indicator I21a]")
"+"
>>> result("O=C(c1ccccc1)c1ccccc1-n1cc(O[C@@H]2O[C@H](CO)[C@H](O)[C@H](O)[C@H]2O)c2c(Cl)c(Br)ccc21 [Indicator I22a]")
"+"

All values here come from patent US8940909B2.
